- TARGET_UNDER_TEST: Inhibitor of nuclear factor kappa-B kinase subunit beta (Homo sapiens, UniProt O14920)
- Sequence (O14920 whole entry): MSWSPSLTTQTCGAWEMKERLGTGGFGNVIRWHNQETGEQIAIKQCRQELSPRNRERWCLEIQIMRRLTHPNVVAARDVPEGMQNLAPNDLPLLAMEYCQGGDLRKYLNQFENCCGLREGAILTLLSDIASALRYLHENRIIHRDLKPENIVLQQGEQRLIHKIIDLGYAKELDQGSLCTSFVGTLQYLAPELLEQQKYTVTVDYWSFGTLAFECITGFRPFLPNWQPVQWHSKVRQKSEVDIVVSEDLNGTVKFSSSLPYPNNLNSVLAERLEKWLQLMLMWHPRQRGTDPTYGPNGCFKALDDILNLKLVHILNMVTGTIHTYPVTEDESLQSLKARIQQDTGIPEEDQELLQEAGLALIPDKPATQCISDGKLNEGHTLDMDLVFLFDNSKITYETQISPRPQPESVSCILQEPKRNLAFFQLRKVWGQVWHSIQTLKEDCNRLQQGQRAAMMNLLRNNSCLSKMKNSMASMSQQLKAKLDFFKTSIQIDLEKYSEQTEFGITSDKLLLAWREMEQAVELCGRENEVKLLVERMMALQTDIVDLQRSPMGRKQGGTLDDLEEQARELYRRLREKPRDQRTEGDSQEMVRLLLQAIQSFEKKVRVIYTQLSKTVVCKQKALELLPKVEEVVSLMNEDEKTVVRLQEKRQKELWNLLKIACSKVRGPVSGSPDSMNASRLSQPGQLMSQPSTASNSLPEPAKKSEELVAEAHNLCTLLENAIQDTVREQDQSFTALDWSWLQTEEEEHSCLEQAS
OBSERVABLE: pIC50
One number for each entry, as −log10 of the molar value.

Please review the entries below; each comes with its answer.
CHEMICAL_SMILES	TARGET_UNDER_TEST	pIC50
CS(=O)(=O)Nc1cccc(-c2cc(-c3ccccc3)cc(C(N)=O)c2N)c1	Inhibitor of nuclear factor kappa-B kinase subunit beta (Homo sapiens, UniProt O14920)	5.10
CS(=O)(=O)c1ccc(-c2cc(C(N)=O)c(N)c(-c3ccc(S(N)(=O)=O)cc3)c2)cc1	Inhibitor of nuclear factor kappa-B kinase subunit beta (Homo sapiens, UniProt O14920)	6.80
NC(=O)c1cc(-c2ccc(F)cc2)cc(-c2ccc(S(N)(=O)=O)cc2)c1N	Inhibitor of nuclear factor kappa-B kinase subunit beta (Homo sapiens, UniProt O14920)	6.70
CNS(=O)(=O)c1ccc(-c2cc(-c3ccccc3)cc(C(N)=O)c2O)cc1	Inhibitor of nuclear factor kappa-B kinase subunit beta (Homo sapiens, UniProt O14920)	6.00
CS(=O)(=O)c1ccc(-c2cc(C(N)=O)c(N)c(-c3ccc(S(=O)(=O)N4CCCC4)cc3)c2)cc1	Inhibitor of nuclear factor kappa-B kinase subunit beta (Homo sapiens, UniProt O14920)	6.40
NC(=O)c1cc(-c2ccncc2)cc(-c2ccc(S(N)(=O)=O)cc2)c1N	Inhibitor of nuclear factor kappa-B kinase subunit beta (Homo sapiens, UniProt O14920)	6.60
NC(=O)c1cc(-c2ccccc2)cc(-c2ccc(CS(N)(=O)=O)cc2)c1N	Inhibitor of nuclear factor kappa-B kinase subunit beta (Homo sapiens, UniProt O14920)	5.40

Note: attention shifts to another entry.
So what's the measured pIC50 for this one? NC(=O)c1cc(-c2ccccc2)cc(-c2ccc(S(=O)(=O)NNCCN3CCCC3)cc2)c1N
6.60
